Entry source: the supplement of paper PMC9170038

test system: MS2 coat protein; assay: apparent KD of MS2 coat protein; designed switch direction (-1 OFF switch, 1 ON switch): 1; higher = weaker reporter binding; details: Eterna round: R95; input ligand: none
PROPERTY_MEASURED: apparent KD of MS2 coat protein (nM)

• CUCAAACAUGAGGAUCACCCAUGUUUUUUCAUGGGAGGAUAUCUAAGUUCAUUAUAUUCAGGAGAAGGCCUAUCUC [× ×•×ª×• ×ž×“×™× ×” × ×—×ª-06] (puzzle: Same State 1) = 30.3
• AUUUAACAAGCUUUUUGCUCGUCUUAUAAACAUGAGGAUCACCCAUGUAAUAGCGUGAGAGUAAAUAAUUUAAUUAU [JMF 99] (puzzle: Sensor for hsa-mir-208a) = 10.8
• GGAGCCGGCACUGAGGAUAUUCAUUUUAAAACAUGAGGAUCACCCAUGUAGGCCAGAAGGCCUUGGGAGAAGGCAGGUCGGCCCG [Bibimoar - 6] (puzzle: Same State 2) = 271
• GCCGGACAUGAGGAUCACCCAUGUCCUCACUAUACAGGAUAUCGGGUAGGAUCCCUACGGCGAGAAGGGUAUAAAA [Inarquat] (puzzle: Same State 1) = 22.1
• GGAGAGAGAGCACAGGAUAUUAGAGGAGAGACAUGAGGAUCACCCAUGUAAGAGAGAGAGGAGAGUGAGAAGGGUGAGAGAGAGG [Altered State 2-19 - Jieux - Same State 2] (puzzle: Same State 2) = 213
